B1: Hairpin Ribozyme (parent)
chain: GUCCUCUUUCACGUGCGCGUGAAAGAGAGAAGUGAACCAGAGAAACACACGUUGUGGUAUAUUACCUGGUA

variants of: B1; assay: self-cleavage, relative activity (ratio to wild type); higher = more cleavage; co-transcriptional
METRIC NAME: self-cleavage
Answers are plain numbers.

Consider the reported self-cleavage for these variants:
1) A35C U58C = 0.798
2) C18A C65A = 0.957

# input Please list self-cleavage recorded for the variant A23U U70C
# output 0.909
